Assay: CCTE_Padilla_ZF_Score.Swim_bladder: CCTE's 144 Hour Post-fertilization zebrafish Assay Score for Swim Bladder Malformation, Padilla Lab (AID 2284408)
The source made the active and inactive calls. Rule for the calls: active = hit-call score of the fitted dose curve at least 0.9, where 1 is the maximum; inactive = score below 0.9.
quantity: AC50

Please review the following examples before continuing.
- smiles_text: "O=C(O)C(F)(F)C(F)(F)C(F)(F)C(F)(F)C(F)(F)C(F)(F)C(F)(F)C(F)(F)F"
  result: "30 µM (active)"
- smiles_text: "O=C(O)C(F)(F)C(F)(F)C(F)(F)C(F)(F)C(F)(F)C(F)(F)C(F)(F)C(F)(F)C(F)(F)F"
  result: "11.5 µM (active)"
- smiles_text: "NS(=O)(=O)C(F)(F)C(F)(F)C(F)(F)C(F)(F)C(F)(F)C(F)(F)C(F)(F)C(F)(F)F"
  result: "0.321 µM (active)"
- smiles_text: "O=C(O)C(F)(F)C(F)(F)C(F)(F)C(F)(F)C(F)(F)F"
  result: "inactive"

Query: Using the record for `O=S(=O)(O)C(F)(F)C(F)(F)C(F)(F)C(F)(F)F` , report its AC50.
Reply: inactive
